assay-notes: Plasma psilocin pharmacokinetics during and after one-hour intravenous infusion of psilocin or psilocybin
applied-conditions: male, Sprague Dawley, rat, plasma, iv, 10 mg/kg, Plasma concentration of psilocin, mean of 3 rats; 10 mg/kg psilocin one-hour IV infusion; sampling time 2 h
readout-kind: concentration at 2 h (ng/mL)
Respond with the bare value in ng/mL.

q: // query concentration at 2 h value for entry CN(C)CCc1c[nH]c2cccc(O)c12 [psilocin, 4-hydroxy-N,N-dimethyltryptamine]
a: 807

Origin of measurements: patent US20240307420A1
